system_name: BRDT(2) (Homo sapiens)
Construct: made in house
experiment_summary: Protein stability (thermal) shift assay, BRDT(2)
Type: binding
assay_conditions: compound 10 μM, protein 2 μM; average of triplicate; read-out: ΔTm Shift, BRDT(2)
Classify by ΔTm at 10 µM. Ranges: bin A: < 0.3 °C; bin B: ≥ 0.3 °C and < 1 °C; bin C: ≥ 1 °C

Solved entries:
Nc1nc(-c2ccc3c(c2)OCCO3)c2nc[nH]c2n1 bin A
Nc1nc(-c2cccc(OCc3ccc(Cl)cc3)c2)c2nc[nH]c2n1 bin C
COc1ccc(Br)cc1-c1nc(N)nc2c1ncn2C bin A
COc1ccc(F)cc1-c1nc(O)nc2[nH]cnc12 bin B
CCCCOc1cc(Br)cc(-c2nc(N)nc3[nH]cnc23)c1 bin C
COc1cc(COc2ccc(-c3nc(N)nc4[nH]cnc34)cc2Cl)cc(OC)c1 bin B
COc1cccc(OC)c1-c1nc(N)nc2[nH]cnc12 bin B
COc1ccc(F)cc1-c1nc(N)nc2[nH]cnc12 bin C

Prompt line: Kindly state the category for this compound: COc1ccc(Br)cc1-c1nc(N)nc2c1ncn2CC(C)=O
Response line: bin B

Prompt line: Given COc1cccc(OC(C)C)c1-c1nc(N)nc2[nH]cnc12 , name the class its ΔTm at 10 µM places it in.
Response line: bin B

Prompt line: GET /class?item= Nc1nc(-c2cc(Br)cc3c2OCC3)c2nc[nH]c2n1
Response line: bin C

Prompt line: Lab note: which band did COc1ccc(Br)cc1-c1nc(N)nc2[nH]cnc12 land in?
Response line: bin C

Prompt line: Bin? COc1cccc(OCC(C)C)c1-c1nc(N)nc2[nH]cnc12
Response line: bin B

Prompt line: Dear colleague, I would appreciate it if you could identify the bin for Clc1nc(Cl)c2nc[nH]c2n1 and reply at your convenience.
Response line: bin A

----------
system_name: PB1(5) (Homo sapiens, UniProt Q86U86)
Construct: made in house
Sequence (Q86U86 653-763 limits assumed): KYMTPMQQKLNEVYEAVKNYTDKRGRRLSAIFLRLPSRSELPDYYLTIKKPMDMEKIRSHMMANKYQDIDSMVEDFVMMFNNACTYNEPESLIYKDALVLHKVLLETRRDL
experiment_summary: Protein stability (thermal) shift assay, PB1(5)
Assay type: binding
assay_conditions: compound 10 μM, protein 2 μM; average of triplicate
Label label 1 when ΔTm at 10 µM < 0.6 °C; otherwise label 0.

Solved cases below.
Nc1nc(-c2ccc(COc3cccc(C(F)(F)F)c3)cc2)c2nc[nH]c2n1 label 1
COc1ccc(F)cc1-c1nc(N)nc2[nH]cnc12 label 1
Nc1nc(-c2ccc3c(c2)OCCO3)c2nc[nH]c2n1 label 1
Cn1cnc2c(-c3ccc(Oc4ccccc4)cc3)nc(N)nc21 label 0
COc1ccc(Cl)cc1-c1nc(O)nc2[nH]cnc12 label 0

Prompt line: # strict comparison: is reported ΔTm at 10 µM < 0.6 °C? input = COc1ccc(Br)cc1-c1nc(O)nc2[nH]cnc12
Response line: label 0

Prompt line: Consider COc1cc(COc2ccc(-c3nc(N)nc4[nH]cnc34)cc2Cl)cc(OC)c1 . Does its ΔTm at 10 µM lie strictly below 0.6 °C?
Response line: label 0

Prompt line: In the record for CCOc1ccc(Br)cc1-c1nc(N)nc2[nH]cnc12 , is ΔTm at 10 µM less than 0.6 °C?
Response line: label 1

Prompt line: Does COc1ccc(Br)cc1-c1nc(N)nc2c1ncn2CC(C)=O have ΔTm at 10 µM strictly under 0.6 °C?
Response line: label 1

Prompt line: Report whether reported ΔTm at 10 µM is lower than 0.6 °C (strictly) for CCCCOc1cc(Br)cc(-c2nc(N)nc3[nH]cnc23)c1
Response line: label 0
